Each entry below lists one item and its recorded inhibition value.
Molecular target: Large T antigen (Simian virus 40) (UniProt P03070)
Sequence (P03070 whole entry, looked up): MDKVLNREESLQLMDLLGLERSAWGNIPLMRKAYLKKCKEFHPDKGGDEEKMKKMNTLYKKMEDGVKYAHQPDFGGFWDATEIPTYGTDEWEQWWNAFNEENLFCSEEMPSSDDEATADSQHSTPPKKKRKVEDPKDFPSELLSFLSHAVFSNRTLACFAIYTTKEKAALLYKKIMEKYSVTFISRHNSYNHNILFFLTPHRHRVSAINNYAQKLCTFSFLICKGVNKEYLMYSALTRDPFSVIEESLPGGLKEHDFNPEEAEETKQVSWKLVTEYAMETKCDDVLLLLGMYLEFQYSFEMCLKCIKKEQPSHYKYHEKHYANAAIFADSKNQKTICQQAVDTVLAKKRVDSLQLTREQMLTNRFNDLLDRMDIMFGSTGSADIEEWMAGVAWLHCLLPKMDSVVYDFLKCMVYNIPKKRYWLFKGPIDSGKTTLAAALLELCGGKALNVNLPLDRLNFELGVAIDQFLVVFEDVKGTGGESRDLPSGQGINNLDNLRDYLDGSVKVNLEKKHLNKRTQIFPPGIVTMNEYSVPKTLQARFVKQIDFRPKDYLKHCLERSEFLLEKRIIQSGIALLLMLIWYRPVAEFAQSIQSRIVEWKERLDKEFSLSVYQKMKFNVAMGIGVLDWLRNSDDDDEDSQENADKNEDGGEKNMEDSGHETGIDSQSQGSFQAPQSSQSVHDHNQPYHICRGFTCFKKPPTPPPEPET
Assay: SV40 large T antigen inhibitors, biochemical (AID 1903)
Conditions: SV40 large T antigen ATPase/helicase inhibition assay; at 20 µM; active compounds read high
About 1,200 (0.39%) of roughly 310,000 compounds were called active. Only a sample is shown. Measured potencies and affinities stand elsewhere.
endpoint: inhibition (%)

INSERT INTO results (compound, endpoint, observedresult) VALUES
  ('c1ccc2cc(Cn3ccnc3)ccc2c1', 'inhibition', 5.43),
  ('COc1cc(/C=N/NC(=O)c2ccccc2O)ccc1OCC(=O)Nc1ccccc1', 'inhibition', 13.3),
  ('COC(=O)C1=CN(Cc2ccccc2)C=C(C(=O)OC)C1c1ccc(OC)c(OC)c1', 'inhibition', 7.64),
  ('CCc1noc(C)c1C(=O)Nc1ccc(S(=O)(=O)N2CCCC(C)C2)cc1 (stereo not given)', 'inhibition', 10),
  ('CC(C)(O)[C@H]1Cc2cc3ccc(=O)oc3cc2O1', 'inhibition', -9.56),
  ('COc1ccc(S(=O)(=O)N(CCc2ccccc2)CC(=O)NCCCO)cc1', 'inhibition', 6.27),
  ('CCN(CC)CCN1C(=O)C(O)=C(C(=O)c2sc(C)nc2C)C1c1cccnc1 (stereo not given)', 'inhibition', 2.43),
  ('COc1cc(C(=O)CSc2nnc(-c3ccc(O)cc3)n2CC2CCCO2)ccc1NC(C)=O (stereo not given)', 'inhibition', 4.93),
  ('COc1ccc(OC)c(/C=N/NC(=O)CC2C(=O)NN=C2C)c1 (stereo not given)', 'inhibition', 8.18),
  ('C/C(O)=C(/C#N)c1nc2ccccc2[nH]1', 'inhibition', 7.8);

---

Target: Large T antigen (Simian virus 40)
Test: SV40 large T antigen inhibitors, biochemical (AID 1903)
Conditions: SV40 large T antigen ATPase/helicase inhibition assay; at 20 µM; active compounds read high
Out of some 310,000 compounds screened, about 1,200 (0.39%) were called active. These entries were drawn from the full list. Potency and affinity values are given separately.
endpoint: inhibition

INSERT INTO assay_data (compound, endpoint, observedresult) VALUES
  ('O=C1c2ccccc2C(=O)N1CCc1c[nH]c2ccccc12', 'inhibition', '14.9% (inactive)'),
  ('COc1ccc(C)cc1NC(=O)Nc1ccc2c(c1)CCC2', 'inhibition', '-11.4% (inactive)'),
  ('O=C(NCC1CCCO1)c1cc(S(=O)(=O)Nc2ccc(Br)cc2)ccc1Cl (centres undefined)', 'inhibition', '-4.53% (inactive)'),
  ('CC1=Nc2cccc3cccc(c23)N1', 'inhibition', '14.5% (inactive)');

---

Biological target: Large T antigen (Simian virus 40)
Assay: SV40 large T antigen inhibitors, biochemical (AID 1903)
Conditions: SV40 large T antigen ATPase/helicase inhibition assay; at 20 µM; active compounds read high
The campaign covered roughly 310,000 compounds. About 1,200 (0.39%) were called active. Only a sample is shown. Results with a measured potency or affinity are listed apart.
Cut-off 10% on inhibition, inclusive. At or above means 1; below means -1.

INSERT INTO measurements (molecule, discretelabel) VALUES
  ('COc1ccc(-c2nc3ccccn3c2NC2CCCCC2)cc1SC1CCCCC1', -1),
  ('CC1CN(c2nc3c(c(=O)n(C)c(=O)n3C)n2Cc2c(Cl)cccc2Cl)CC(C)O1 (stereo not drawn)', -1),
  ('COC1OC(COC(=O)c2ccccc2)C(OC(=O)c2ccccc2)C1OC(=O)c1ccccc1 (stereo not drawn)', -1),
  ('COC(=O)c1sc2cc([N+](=O)[O-])cc(SCC(C)C)c2c1N', 1),
  ('CCOC(=O)Cc1csc(NC(=O)c2ccc3c(c2)OCO3)n1', -1),
  ('COc1ccc(F)cc1C(=O)C1CCCN(Cc2c(C)n(C)n(-c3ccccc3)c2=O)C1 (stereo not drawn)', 1),
  ('O=C1CC(N2CCSCC2)C(=O)N1c1cccc(Br)c1 (stereo not drawn)', 1),
  ('Cc1cc(C(F)(F)F)nn1Cc1n[nH]c(=S)n1-c1ccc(F)cc1', 1),
  ('COc1ccc(/C=N/NC(=O)c2ccc(C)nc2)cc1O', 1),
  ('O=C(NC1CCCCC1)C(c1ccco1)N(CCc1ccccc1)C(=O)C(F)(F)F (stereo not drawn)', -1),
  ('CC(=O)O[C@]1(C(C)=O)CCC2C3C=C(C)C4=CC(=O)CC[C@]4(C)C3CC[C@@]21C (stereo partly drawn)', -1),
  ('CCCCC(CCCCl)C(=O)Nc1ccccc1 (stereo not drawn)', -1),
  ('Fc1ccc2c(c1)C(c1ccncc1)=NNC(c1ccc(Cl)cc1)=N2', -1),
  ('Cc1cn(C2OC(COC(=O)c3ccccc3)C(OC(=O)c3ccccc3)C2OC(=O)c2ccccc2)c(=O)[nH]c1=O (stereo not drawn)', -1),
  ('COc1ccc(-c2c3c([nH]c(=S)c2C#N)CCC3)cc1', 1),
  ('Cc1ccc(NC(=O)CN2CCc3cc4c(cc3C2C)OCCCO4)cc1 (stereo not drawn)', -1),
  ('O=C(Nc1ccccc1)Nc1ccc(Nc2ccccc2)cc1', 1),
  ('COc1ccc(N(CC(=O)NCCC2=CCCCC2)S(C)(=O)=O)cc1', -1),
  ('CSc1ccccc1NC(=O)CN(C)Cc1cccc(Cl)c1', -1),
  ('O=C(COc1ccc([N+](=O)[O-])cc1)Nc1ccc2c(c1)nc1n2CCOC1', 1),
  ('Cc1cc(=O)oc2c(CN3CCCC3)c(O)ccc12', -1),
  ('CC1SCC(NC(=O)c2ccccc2Cl)CS1 (stereo not drawn)', -1),
  ('N#Cc1c(-c2ccncc2)c2c([nH]c1=S)CCCC2', 1),
  ('O=C(O)C1CCCCC1C(=O)Nc1ccccc1Nc1ccccc1 (stereo not drawn)', 1),
  ('Cc1occc1C(=O)N/N=C/C=C/c1ccccc1', 1),
  ('O=C(O)C1CCCCC1C(=O)Nc1ccc(-c2ccccc2)cc1 (stereo not drawn)', -1),
  ('CCOc1ccc(/C=N/n2nnnc2N)cc1OCC', -1),
  ('Cc1ccc(-c2nnc(SCC(=O)N3c4ccccc4NC(=O)C3(C)C)n2N)cc1', -1),
  ('COc1ccc(OC)c(-c2c3c([nH]c(=S)c2C#N)CCCC3)c1', 1),
  ('CC(=O)Nc1ccc(Nc2ccccc2)cc1', 1),
  ('COc1ccc(/C=N/n2nnnc2N)cc1OC', 1),
  ('COc1ccc(/C=N/NC(=O)c2cccnc2)cc1O', 1),
  ('N#Cc1c(-c2ccc(Cl)cc2)c2c([nH]c1=S)CCCC2', 1),
  ('CC(CCc1ccc(O)cc1)NCc1ccc(Br)cc1 (stereo not drawn)', -1),
  ('Cn1c(-c2ccccc2)c[n+]2c1-c1ccccc1C2', -1),
  ('O=C1C(=Cc2cccn2-c2ccc(O)cc2)C(=O)c2ccccc21', -1),
  ('O=Cc1cn(-c2ccccc2)nc1-c1ccc(F)cc1', -1);
